# System: Human immunodeficiency virus 1
# assay-comment: microbe, parasite or virus in culture
# Format: functional, organism-based
# experimental-context: Human immunodeficiency virus 1, NL432
pEC50 for assorted molecules
# pEC50: negative log10 of molar concentration; output just the value

The cases that follow already have their pEC50 on record.
CC(=O)N[C@H](CSCc1ccc(C)cc1)C(=O)N[C@@H](Cc1ccccc1)[C@H](O)C(=O)N1CSC(C)(C)[C@H]1C(=O)NCc1ccccc1C	7.57
CC(=O)N[C@H](CSc1cccc2ccccc12)C(=O)N[C@@H](Cc1ccccc1)[C@H](O)C(=O)N1CSC(C)(C)[C@H]1C(=O)NCc1ccccc1C	7.28
CC(=O)N[C@H](CSCc1ccccc1)C(=O)N[C@@H](Cc1ccccc1)[C@H](O)C(=O)N1CSC(C)(C)[C@H]1C(=O)NCc1ccccc1C	7.68
CC(=O)N[C@H](CS(=O)(=O)c1ccc(Cl)cc1)C(=O)N[C@@H](Cc1ccccc1)[C@H](O)C(=O)N1CSC(C)(C)[C@H]1C(=O)NCc1ccccc1C	7.72

Exercise: Provide measured pEC50 on Human immunodeficiency virus 1 for `CC(=O)N[C@H](CSc1ccc2ccccc2c1)C(=O)N[C@@H](Cc1ccccc1)[C@H](O)C(=O)N1CSC(C)(C)[C@H]1C(=O)NCc1ccccc1C` please.
Key: 7.49

Exercise: Provide measured pEC50 on Human immunodeficiency virus 1 for `CSC[C@H](NC(=O)COc1cccc2cnccc12)C(=O)N[C@@H](Cc1ccccc1)[C@H](O)C(=O)N1CSC[C@H]1C(=O)NC(C)(C)C` please.
Key: 6.63

----------
# assay-comment: Selectivity index, ratio of CC50 for human MT4 cells to EC50 for HIV1 3B
# experimental-context: MT4 cells
reported-property: selectivity ratio
// no unit string in output, number only

The cases that follow already have their selectivity ratio on record.
Cc1ccccc1CNC(=O)[C@H]1N(C(=O)[C@@H](O)[C@H](Cc2ccccc2)NC(=O)[C@@H](CS(=O)(=O)c2ccc3ccccc3c2)NS(C)(=O)=O)CSC1(C)C	230
Cc1ccccc1CNC(=O)[C@H]1N(C(=O)[C@@H](O)[C@H](Cc2ccccc2)NC(=O)[C@@H](CSc2cccc3ccccc23)NS(C)(=O)=O)CSC1(C)C	690
Cc1ccccc1CNC(=O)[C@H]1N(C(=O)[C@@H](O)[C@H](Cc2ccccc2)NC(=O)[C@@H](COCc2ccccc2)NS(C)(=O)=O)CSC1(C)C	850
COc1ccc(CSC[C@@H](NC(C)=O)C(=O)N[C@@H](Cc2ccccc2)[C@H](O)C(=O)N2CSC(C)(C)[C@H]2C(=O)NCc2ccccc2C)cc1	1300
Cc1ccccc1CNC(=O)[C@H]1N(C(=O)[C@@H](O)[C@H](Cc2ccccc2)NC(=O)[C@@H](CSc2ccc3ccccc3n2)NS(C)(=O)=O)CSC1(C)C	50

Exercise: Note selectivity ratio for the compound shown: `Cc1ccccc1CNC(=O)[C@H]1N(C(=O)[C@@H](O)[C@H](Cc2ccccc2)NC(=O)[C@@H](CCc2ccccc2)NS(C)(=O)=O)CSC1(C)C`
Key: 190

Exercise: Note selectivity ratio for the compound shown: `CC(=O)N[C@H](CS(=O)(=O)c1cccc2ccccc12)C(=O)N[C@@H](Cc1ccccc1)[C@H](O)C(=O)N1CSC(C)(C)[C@H]1C(=O)NCc1ccccc1C`
Key: 400
